The values you see were collected from patent US9326986B2.

targetOfAssay: SIRT1 (Homo sapiens, UniProt Q96EB6)
Sequence (Q96EB6 whole entry): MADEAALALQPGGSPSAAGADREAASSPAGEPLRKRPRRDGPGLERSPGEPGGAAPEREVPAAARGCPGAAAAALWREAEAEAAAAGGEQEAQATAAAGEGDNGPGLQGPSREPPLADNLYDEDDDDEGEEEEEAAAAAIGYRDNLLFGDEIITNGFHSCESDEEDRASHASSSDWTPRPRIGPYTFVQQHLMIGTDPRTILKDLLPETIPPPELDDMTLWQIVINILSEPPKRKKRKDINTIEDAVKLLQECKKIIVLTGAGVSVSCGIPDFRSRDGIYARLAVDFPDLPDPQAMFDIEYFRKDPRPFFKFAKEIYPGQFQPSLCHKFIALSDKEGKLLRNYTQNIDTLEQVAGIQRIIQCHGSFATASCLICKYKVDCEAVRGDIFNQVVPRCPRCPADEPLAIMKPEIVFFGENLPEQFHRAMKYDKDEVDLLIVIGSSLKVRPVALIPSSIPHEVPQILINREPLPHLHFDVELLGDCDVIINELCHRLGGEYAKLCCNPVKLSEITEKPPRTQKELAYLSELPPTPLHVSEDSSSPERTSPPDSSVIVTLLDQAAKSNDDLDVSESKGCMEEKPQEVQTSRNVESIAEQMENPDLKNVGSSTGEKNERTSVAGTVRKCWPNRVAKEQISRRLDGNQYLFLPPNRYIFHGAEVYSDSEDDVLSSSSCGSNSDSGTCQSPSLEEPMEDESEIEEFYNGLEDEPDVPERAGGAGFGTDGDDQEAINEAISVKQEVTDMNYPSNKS
measurementProtocol: Mass spectrometry based assay to identify modulators of SIRT1 activity (deacetylation of p53-based acetylated peptide)
Type: biochemical
conditionDescription: 10 nM SIRT1, 0.5 μM peptide substrate, 120 μM βNAD+, 25 minutes at 25° C.
Source text: A mass spectrometry based assay was used to identify modulators of SIRT1 activity. The mass spectrometry based assay utilizes a peptide having 20 amino acid residues as follows: Ac-EE-K(biotin)-GQSTSSHSK(Ac)NleSTEG-K(5TMR)-EE-NH2 (SEQ ID NO: 1) wherein K(Ac) is an acetylated lysine residue and Nle is a norleucine. The peptide is labeled with the fluorophore 5TMR (excitation 540 nm/emission 580 nm) at the C-terminus. The sequence of the peptide substrate is based on p53 with several modifications. […]
reportedMetric: % Fold Act. (percent maximum fold activation)

Example cases with answers are listed next.
| compound | measuredValue |
| --- | --- |
| Cn1c(-c2ccc(OC(F)(F)F)cc2)nc2c(NC(=O)c3cnccn3)cccc2c1=O | B (Fold Activation<200%) |
| Cn1c(-c2cccc(C(F)(F)F)c2)nc2c(C(=O)Nc3ncc(CN4CCCC4)s3)cccc2c1=O | A (Fold activation>200%) |
| O=C(Nc1cccc2c(=O)cc(-c3cccc(C(F)(F)F)c3)[nH]c12)c1cccnc1 | A (Fold activation>200%) |
| Cn1c(-c2ccc(C(F)(F)F)cc2)nc2c(C(=O)Nc3ccccn3)cccc2c1=O | B (Fold Activation<200%) |
| Cn1c(-c2cncnc2)nc2c(C(=O)Nc3ccccn3)cccc2c1=O | B (Fold Activation<200%) |
| Cn1c(-c2cccc(C(F)(F)F)c2)nc2c(NC(=O)c3cccc(OCC(O)CO)n3)cccc2c1=O (centres unmarked) | A (Fold activation>200%) |
| Cn1c(-c2cccc(C(F)(F)F)c2)nc2c(C(=O)Nc3ccnc(N4CCOCC4)c3)cccc2c1=O | A (Fold activation>200%) |
| Cn1c(-c2cccc(C(F)(F)F)c2)nc2c(NC(=O)c3cccc(CN4CCOCC4)n3)cccc2c1=O | A (Fold activation>200%) |
| Cc1ncsc1-c1nc2c(C(=O)Nc3ccccn3)cccc2c(=O)n1C | B (Fold Activation<200%) |
| Cn1c(-c2cccc(C(F)(F)F)c2)nc2c(C(=O)Nc3cccc(OC[C@H](O)CO)n3)cccc2c1=O | A (Fold activation>200%) |

The recorded % Fold Act. (percent maximum fold activation) for entry Cc1ncsc1-c1nc2c(NC(=O)c3cnccn3)cccc2c(=O)n1C equals A (Fold activation>200%)

# % Fold Act. (percent maximum fold activation) (compound: Cn1cc(C(=O)Nc2cccc3c(=O)n(C)c(-c4cccc(C(F)(F)F)c4)nc23)cn1 ) is B (Fold Activation<200%)

// recorded % Fold Act. (percent maximum fold activation) for Cn1ccc(-c2nc3c(C(=O)Nc4ccccn4)cccc3c(=O)n2C)n1 : B (Fold Activation<200%)

For Cn1c(-c2cccc(C(F)(F)F)c2)nc2c(C(=O)Nc3nccs3)cccc2c1=O the compound record lists % Fold Act. (percent maximum fold activation) as B (Fold Activation<200%)

// % Fold Act. (percent maximum fold activation) value for Cn1c(-c2cccc(C(F)(F)F)c2)nc2c(C(=O)Nc3ccccn3)cccc2c1=O : A (Fold activation>200%)

###

targetOfAssay: SIRT1 (Homo sapiens, UniProt Q96EB6)
measurementProtocol: Mass spectrometry based assay to identify modulators of SIRT1 activity (deacetylation of p53-based acetylated peptide)
Format: biochemical
conditionDescription: SIRT1 activation; 10 nM SIRT1, 0.5 μM peptide substrate, 120 μM βNAD+, 25 minutes at 25° C.
reportedMetric: EC1.5 μM

Study these solved cases before continuing.
| compound | EC1.5 μM |
| --- | --- |
| Cn1c(-c2cccc(C(F)(F)F)c2)nc2c(C(=O)Nc3cccc(CN4CC[C@H](F)C4)n3)cccc2c1=O | A (EC1.5<1.0 μM) |
| Cn1nccc1C(=O)Nc1cccc2c(=O)n(C)c(-c3cccc(C(F)(F)F)c3)nc12 | A (EC1.5<1.0 μM) |
| Cn1c(-c2cccc(C(F)(F)F)c2)nc2c(C(=O)Nc3ncc(CN4CCOCC4)s3)cccc2c1=O | B (EC1.5 1-25 μM) |
| Cn1c(-c2cccc(C(F)(F)F)c2)nc2c(C(=O)Nc3ccncn3)cccc2c1=O | B (EC1.5 1-25 μM) |

Memo: O=C(Nc1cccc2c(=O)cc(-c3cccc(C(F)(F)F)c3)[nH]c12)c1ccccn1 , reported EC1.5 μM: A (EC1.5<1.0 μM)

For record Cn1c(-c2cscn2)nc2c(C(=O)Nc3ccccn3)cccc2c1=O the listed EC1.5 μM is C (EC1.5>25 μM)

# EC1.5 μM of Cn1c(-c2cccc(C(F)(F)F)c2)nc2c(C(=O)Nc3cnccn3)cccc2c1=O = A (EC1.5<1.0 μM)

Value of EC1.5 μM reported for the compound O=C(Nc1ccccn1)c1cccc2c(=O)[nH]c(-c3cccc(OC(F)F)c3)nc12 is C (EC1.5>25 μM)

For CN1C(=O)CCC1C(=O)Nc1cccc2c(=O)n(C)c(-c3cccc(C(F)(F)F)c3)nc12 (stereo not shown) the compound record lists EC1.5 μM as C (EC1.5>25 μM)

// sample Cc1nc(NC(=O)c2cccc3c(=O)n(C)c(-c4cccc(C(F)(F)F)c4)nc23)sc1C , its EC1.5 μM was A (EC1.5<1.0 μM)

###

targetOfAssay: SIRT1 (Homo sapiens, UniProt Q96EB6)
measurementProtocol: Mass spectrometry based assay to identify modulators of SIRT1 activity (deacetylation of p53-based acetylated peptide)
Type: biochemical
conditionDescription: SIRT1 activation; 10 nM SIRT1, 0.5 μM peptide substrate, 120 μM βNAD+, 25 minutes at 25° C.
Excerpt: A mass spectrometry based assay was used to identify modulators of SIRT1 activity. The mass spectrometry based assay utilizes a peptide having 20 amino acid residues as follows: Ac-EE-K(biotin)-GQSTSSHSK(Ac)NleSTEG-K(5TMR)-EE-NH2 (SEQ ID NO: 1) wherein K(Ac) is an acetylated lysine residue and Nle is a norleucine. The peptide is labeled with the fluorophore 5TMR (excitation 540 nm/emission 580 nm) at the C-terminus. The sequence of the peptide substrate is based on p53 with several modifications. […]
reportedMetric: EC1.5 μM

Some solved cases for reference:
| compound | EC1.5 μM |
| --- | --- |
| O=C(Nc1nccs1)c1cccc2c(=O)cc(-c3cccc(C(F)(F)F)c3)[nH]c12 | A (EC1.5<1.0 μM) |
| Cn1c(-c2cccc(C(F)(F)F)c2)nc2c(NC(=O)c3cccc(OCC(O)CO)n3)cccc2c1=O (stereo not shown) | A (EC1.5<1.0 μM) |
| Cn1c(-c2cccc(OC(F)(F)F)c2)nc2c(NC(=O)c3cnccn3)cccc2c1=O | A (EC1.5<1.0 μM) |
| O=C(Nc1cccnc1)c1cccc2c(=O)cc(-c3ccccc3C(F)F)[nH]c12 | B (EC1.5 1-25 μM) |
| Cn1ccnc1C(=O)Nc1cccc2c(=O)n(C)c(-c3cccc(C(F)(F)F)c3)nc12 | B (EC1.5 1-25 μM) |
| O=C(Nc1ccccn1)c1cccc2c(=O)[nH]c(-c3cccc(C(F)(F)F)c3)nc12 | A (EC1.5<1.0 μM) |
| Cn1c(-c2cccc(C(F)(F)F)c2)nc2c(NC(=O)c3cccc(N4CCOCC4)n3)cccc2c1=O | A (EC1.5<1.0 μM) |
| Cn1c(-c2cccc(OC(F)(F)F)c2)nc2c(C(=O)Nc3nccs3)cccc2c1=O | B (EC1.5 1-25 μM) |

Shift focus to the following entry.
Quick note, EC1.5 μM for Cn1c(-c2cccc(C(F)(F)F)c2)nc2c(NC(=O)c3cccc(CN4CCOCC4)n3)cccc2c1=O landed at A (EC1.5<1.0 μM)

###

targetOfAssay: SIRT1 (Homo sapiens, UniProt Q96EB6)
measurementProtocol: Mass spectrometry based assay to identify modulators of SIRT1 activity (deacetylation of p53-based acetylated peptide)
Type: biochemical
conditionDescription: 10 nM SIRT1, 0.5 μM peptide substrate, 120 μM βNAD+, 25 minutes at 25° C.
reportedMetric: % Fold Act. (percent maximum fold activation)

Look over these answered cases.
| compound | measuredValue |
| --- | --- |
| Cn1c(-c2ccncn2)nc2c(NC(=O)c3cnccn3)cccc2c1=O [Compound 280] | B (Fold Activation<200%) |
| Cc1ncoc1C(=O)Nc1cccc2c(=O)n(C)c(-c3cccc(C(F)(F)F)c3)nc12 [Compound 230] | A (Fold activation>200%) |
| Cn1c(-c2cccc(OC(F)(F)F)c2)nc2c(NC(=O)c3cnccn3)cccc2c1=O [Compound 204] | A (Fold activation>200%) |
| Cn1c(-c2cccc(C(F)(F)F)c2)nc2c(NC(=O)c3cncnc3)cccc2c1=O [Compound 241] | B (Fold Activation<200%) |
| O=C(Nc1cccc2c(=O)cc(-c3cccc(C(F)(F)F)c3)[nH]c12)c1cccc(N2CCOCC2)n1 [Compound 425] | A (Fold activation>200%) |

Hey, SIRT1 (Homo sapiens, UniProt Q96EB6) data for O=C(Nc1cccc2c(=O)[nH]c(-c3ccccc3OC(F)F)nc12)c1cnccn1 [Compound 313] : % Fold Act. (percent maximum fold activation) came out at A (Fold activation>200%)

Readout % Fold Act. (percent maximum fold activation) for Cc1cc(NC(=O)c2cccc3c(=O)cc(-c4cccc(C(F)(F)F)c4)[nH]c23)on1 [Compound 406] , test system SIRT1 (Homo sapiens, UniProt Q96EB6), was A (Fold activation>200%)

// compound Cn1c(-c2ncccn2)nc2c(C(=O)Nc3ccccn3)cccc2c1=O [Compound 259] , assay SIRT1 (Homo sapiens, UniProt Q96EB6), % Fold Act. (percent maximum fold activation) value: B (Fold Activation<200%)
